Target: 5-hydroxytryptamine receptor 7 (Homo sapiens)
Conditions: Compound concentration 10 µM; call rule not given here
Hello, when you answer, please use one of the following outcomes: active, inactive

Would you please look over these solved cases?
- STRUCTURE: "N#Cc1c[nH]c2c(C(=O)N3CCN(CCc4ccc(F)cc4)CC3)cccc12"
  STUDY TARGET: "5-hydroxytryptamine receptor 7 (Homo sapiens)"
  CLASS NAME: "active"
- STRUCTURE: "C[N+]1(C)[C@@H]2C[C@@H](OC(=O)C(O)(c3cccs3)c3cccs3)C[C@H]1[C@@H]1O[C@@H]12"
  STUDY TARGET: "5-hydroxytryptamine receptor 7 (Homo sapiens)"
  CLASS NAME: "inactive"
- STRUCTURE: "N#Cc1c(N)nc(SCc2csc(-c3ccc(Cl)cc3)n2)c(C#N)c1-c1ccc(OCCO)cc1"
  STUDY TARGET: "5-hydroxytryptamine receptor 7 (Homo sapiens)"
  CLASS NAME: "inactive"

QUERY: Hi, do you know how `CC(C)Oc1ccccc1C(=O)Nc1ccccc1C(=O)Nc1cccc(S(=O)(=O)C(F)(F)F)c1` came out in this test?
RESULT: inactive

QUERY: Recorded test call requested for `CCCCCNC(=N)N/N=C/c1c[nH]c2ccc(OC)cc12`
RESULT: active

QUERY: # lookup: test call for `O=c1ccn([C@@H]2O[C@H](COP(=O)(O)OP(=O)(O)OP(=O)(O)O)[C@@H](O)[C@H]2O)c(=O)[nH]1`
RESULT: inactive

QUERY: Tell me the recorded outcome of this test for `Nc1nc(NCCc2ccc(O)cc2)nc2nc(-c3ccco3)nn12` .
RESULT: inactive

---

Molecular target: UniProt P08588
Sequence (P08588 whole entry, looked up): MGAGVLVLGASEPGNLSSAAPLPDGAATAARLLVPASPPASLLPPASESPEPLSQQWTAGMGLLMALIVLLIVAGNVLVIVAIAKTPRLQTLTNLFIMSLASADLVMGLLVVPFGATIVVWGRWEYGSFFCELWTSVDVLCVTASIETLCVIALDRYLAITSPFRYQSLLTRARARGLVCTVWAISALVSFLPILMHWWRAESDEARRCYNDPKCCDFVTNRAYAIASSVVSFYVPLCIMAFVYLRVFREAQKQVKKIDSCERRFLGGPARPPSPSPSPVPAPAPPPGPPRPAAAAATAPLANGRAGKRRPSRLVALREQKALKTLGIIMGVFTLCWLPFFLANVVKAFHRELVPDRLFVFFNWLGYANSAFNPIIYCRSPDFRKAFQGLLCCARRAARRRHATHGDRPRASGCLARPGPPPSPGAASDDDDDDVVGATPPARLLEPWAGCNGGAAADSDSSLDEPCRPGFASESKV
Settings: Compound concentration 10 µM
Description: PDSP Primary Binding target: ADRB1 - Compounds are tested at 10 uM concentration, plate are incubated at room temperature in the dark for 90 minutes. Reaction are stopped by vacuum filtration onto 0.3% polyethyleneimine soaked filter mats using Filtermate harvester. Scintilation cocktail is then melted onto microwave-dried filters on a hot plate and the radio activity is counted in Microbia counter.
Measured inhibition accompanies every entry in the list below.
Numeric only. Scale: %

Study these solved cases before continuing.
- COMPOUND: "OC1(c2ccc(Cl)cc2)CCN(Cc2c[nH]c3ccccc23)CC1"
  OBS VALUE: 38.7
- COMPOUND: "COc1cccc([C@@H](C)NCCCc2ccccc2Cl)c1"
  OBS VALUE: 15.9
- COMPOUND: "N[C@H](C(=O)O)c1ccc(C(=O)O)c(C(=O)O)c1"
  OBS VALUE: -5.64
- COMPOUND: "c1cc(CN2CCCNCCNCCCNCC2)ccc1CN1CCCNCCNCCCNCC1"
  OBS VALUE: 34.9
- COMPOUND: "Cc1c(OCc2cccc(-c3ccc(C(=O)O)cc3)c2)cc2c(c1C)C(=O)C(C1CCCC1)C2 (stereo not given)"
  OBS VALUE: -9.82

QUERY: Value lookup for inhibition; key = CN(C(=O)Cc1ccc(Cl)c(Cl)c1)C(CN1CCCC1)c1cccc(OCC(=O)O)c1 (stereo not given)
RESULT: 20.5

QUERY: Which inhibition is reported for this compound? `CN1CCN(c2ccc(Nc3c4ccccc4nc4ccccc34)cc2)CC1`
RESULT: 0.45

QUERY: Quick one: inhibition of `Cc1nc(C#Cc2ccnc(Cl)c2)c(C)n1-c1ccc(OC(F)(F)F)cc1` ?
RESULT: 29.4

QUERY: If you can, please state the reported inhibition value of `NC[C@@H]1O[C@H](C23CC4CC(CC(C4)C2)C3)Cc2c1ccc(O)c2O` .
RESULT: -6.91

QUERY: Recorded inhibition for `FC(F)(F)c1cccc(-c2noc(-c3cc(-c4ccccc4)c(C(F)(F)F)s3)n2)c1` , please?
RESULT: -3.82
